Reference source for all entries: PubChem BioAssay AID1159580

# Lookup of reported normalized growth keyed by entry
- assay_notes: chemical genetic growth profiling, strain panel (AID 1159580);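 further: tested at 20 µM; growth read once vehicle control cultures reached saturation at 30 °C; 1 = growth at the plate median or of vehicle wells; lower values mean less growth of the strain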
- test_settings: S. cerevisiae deletion strains, growth OD, locus YPL240C, strain hsp82, active compounds read low
Screen size: about 5,500 compounds; about 2,000 (36%) were called active. Roughly 18% stayed inconclusive and do not appear here. Some of the results follow.

// solved cases for normalized growth follow
Consider the compound shown here: CCC(=O)O[C@H]1CCC2C3CCc4cc(O)ccc4C3CC[C@@]21C (stereo partly drawn) What is its recorded normalized growth?
1 (inactive)

Consider the compound shown here: Cn1nnnc1SCC1=C(C(=O)O)N2C(=O)C(NC(=O)C(OC=O)c3ccccc3)C2SC1 (stereo not drawn) What is its recorded normalized growth?
0.995 (inactive)

Consider the compound shown here: `CNC(=O)CSP(=S)(OC)OC` What is its recorded normalized growth?
1.02 (inactive)

Consider the compound shown here: `FC(F)(F)COCC(F)(F)F` What is its recorded normalized growth?
1 (inactive)

Further cases:
Consider the compound shown here: C[C@]12CCC3c4ccc(O)cc4CCC3C1CC[C@@H]2OC(=O)CCC1CCCC1 (stereo partly drawn) What is its recorded normalized growth?
0.996 (inactive)

Consider the compound shown here: `CCNc1nc(Cl)nc(NC(C)C)n1` What is its recorded normalized growth?
1.01 (inactive)

Consider the compound shown here: `COC(=O)C1=CO[C@@H](O[C@@H]2O[C@H](CO)[C@@H](O)[C@H](O)[C@H]2O)[C@@H]2[C@@H](C)[C@@H](O)C[C@H]12` What is its recorded normalized growth?
0.996 (inactive)

Consider the compound shown here: CCOC(=O)C1=C(C)NC(C)=C(C(=O)OC)C1c1cccc([N+](=O)[O-])c1 (stereo not drawn) What is its recorded normalized growth?
1.01 (inactive)
